- System: PANC-1 tumor model
- assay text: Tissue distribution in nude mice (PANC-1 tumor model)
- Assay type: in vivo, BALB/c nu/nu mice
- assay conditions: nude mice (PANC-1 tumor model), 1 h after injection
readout type: Tissue distribution, Brain
Answer format: number, then unit.

# count of solved cases: 3
{"molecule": "COc1ccc(C[C@@](C)(N)C(=O)O)cc1[211At] [^211At-AAMT-O-Me-D]", "target under test": "PANC-1 tumor model", "measured value": "0.15 ± 0.01 %ID/g"}
{"molecule": "COc1ccc(C[C@](C)(N)C(=O)O)cc1[211At] [^211At-AAMT-O-Me-L]", "target under test": "PANC-1 tumor model", "measured value": "0.46 ± 0.00 %ID/g"}
{"molecule": "CCOc1ccc(C[C@](C)(N)C(=O)O)cc1[211At] [^211At-AAMT-O-Et-L]", "target under test": "PANC-1 tumor model", "measured value": "0.65 ± 0.11 %ID/g"}

Proceed to the following item.
// lookup Tissue distribution, Brain for CCCOc1ccc(C[C@](C)(N)C(=O)O)cc1[211At] [^211At-AAMT-O-Pr-L]
0.79 ± 0.13 %ID/g

----------
- assay text: Tissue distribution in ICR mice (normal animals)
- Format: in vivo
- assay conditions: 1 h after injection
Measured Tissue distribution, Lung, listed per entry.
Kindly answer with a numeric value in %ID/g, unit omitted.

# count of solved cases: 3
{"compound": "COc1ccc(C[C@@](C)(N)C(=O)O)cc1[211At] [^211At-AAMT-O-Me-D]", "measured value": 2.84}
{"compound": "CCCOc1ccc(C[C@](C)(N)C(=O)O)cc1[211At] [^211At-AAMT-O-Pr-L]", "measured value": 6.54}
{"compound": "CCOc1ccc(C[C@](C)(N)C(=O)O)cc1[211At] [^211At-AAMT-O-Et-L]", "measured value": 4.47}

Proceed to the following item.
// lookup Tissue distribution, Lung for COc1ccc(C[C@](C)(N)C(=O)O)cc1[211At] [^211At-AAMT-O-Me-L]
6.42

----------
Measured Tissue distribution, Kidney, listed per entry.
- System: PANC-1 tumor model
- assay text: Tissue distribution in nude mice (PANC-1 tumor model)
- Type: in vivo, BALB/c nu/nu mice
- assay conditions: nude mice (PANC-1 tumor model), 1 h after injection
Kindly answer with a numeric value in %ID/g, unit omitted.

# count of solved cases: 3
{"compound": "COc1ccc(C[C@@](C)(N)C(=O)O)cc1[211At] [^211At-AAMT-O-Me-D]", "Tissue distribution, Kidney [%ID/g]": 1.40}
{"compound": "CCCOc1ccc(C[C@](C)(N)C(=O)O)cc1[211At] [^211At-AAMT-O-Pr-L]", "Tissue distribution, Kidney [%ID/g]": 5.76}
{"compound": "CCOc1ccc(C[C@](C)(N)C(=O)O)cc1[211At] [^211At-AAMT-O-Et-L]", "Tissue distribution, Kidney [%ID/g]": 6.23}

Proceed to the following item.
// lookup Tissue distribution, Kidney for COc1ccc(C[C@](C)(N)C(=O)O)cc1[211At] [^211At-AAMT-O-Me-L]
3.56

----------
- assay text: Tissue distribution in ICR mice (normal animals)
- Assay type: in vivo
- assay conditions: 1 h after injection
readout type: Tissue distribution, Small intestine (%ID/g)
Kindly answer with a numeric value in %ID/g, unit omitted.

# count of solved cases: 3
{"compound": "CCOc1ccc(C[C@](C)(N)C(=O)O)cc1[211At] [^211At-AAMT-O-Et-L]", "Tissue distribution, Small intestine, %ID/g": 12.85}
{"compound": "COc1ccc(C[C@@](C)(N)C(=O)O)cc1[211At] [^211At-AAMT-O-Me-D]", "Tissue distribution, Small intestine, %ID/g": 2.66}
{"compound": "COc1ccc(C[C@](C)(N)C(=O)O)cc1[211At] [^211At-AAMT-O-Me-L]", "Tissue distribution, Small intestine, %ID/g": 1.82}

Proceed to the following item.
// lookup Tissue distribution, Small intestine for CCCOc1ccc(C[C@](C)(N)C(=O)O)cc1[211At] [^211At-AAMT-O-Pr-L]
1.83
